# system tested: T1, human OX40 on cells (CHO-K1/hu OX40) (human, UniProt P43489 29-277)
# T1 construct: whole, on cells; Also used here for OX40 on the HEK293/OX40/NF-kb reporter cells and on human T cells in the functional assays; also called CHO-K1/OX40; human OX40 cells
# T1 sequence (looked up): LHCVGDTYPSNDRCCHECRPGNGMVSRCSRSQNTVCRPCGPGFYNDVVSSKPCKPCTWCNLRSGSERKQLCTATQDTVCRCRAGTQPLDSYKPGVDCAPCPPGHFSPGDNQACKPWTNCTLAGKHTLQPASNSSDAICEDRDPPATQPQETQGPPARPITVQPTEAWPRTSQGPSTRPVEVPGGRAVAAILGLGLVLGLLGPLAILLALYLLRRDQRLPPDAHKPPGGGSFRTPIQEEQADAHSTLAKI
# assay remarks: FACS, blocking of biotin-human OX40L on CHO-K1/hu OX40 cells
Kindly state pIC50 for each of the entries shown.
Please express pIC50 as -log10 of the molar concentration.

Reported pIC50, binder PR002067 (antibody, human IgG1, V domains shown, no light chain; also called anti-OX40 HCAb antibody) VH: EVQLLESGGGLVQPGGSLRLSCAASGFTFSSYAMSWVRQAPGKGLEWVSAISGRGGSTFYADSVRGRFTISRDNSKNTLYLQMNSLRAEDTAMYYCVDGTTGTTDVDYWGQGTLVTVSS : ____ 6.78

How about this binder: PR002074 (antibody, human IgG1, V domains shown, no light chain; also called anti-OX40 HCAb antibody) VH: EVQLLESGGGLVQPGGSLRLSCAASGFTFSSYAMSWVRQAPGKGLEWVSGISGGGNNTFYADSVRGRFTISRDNSKNTLYLQMNSLRAEDTAVYYCMRGWELPLLENWGQGTLVTVSS 7.37

Source of measurements: patent US20230295324A1
